Cited source: patent US20240376185A1

# system.under.test: tetanus neurotoxin (TeNT), authentic tetanus holotoxin (Clostridium tetani, UniProt P04958 2-1315)
# Sequence (P04958 2-457 limits assumed, chain 1 of 2): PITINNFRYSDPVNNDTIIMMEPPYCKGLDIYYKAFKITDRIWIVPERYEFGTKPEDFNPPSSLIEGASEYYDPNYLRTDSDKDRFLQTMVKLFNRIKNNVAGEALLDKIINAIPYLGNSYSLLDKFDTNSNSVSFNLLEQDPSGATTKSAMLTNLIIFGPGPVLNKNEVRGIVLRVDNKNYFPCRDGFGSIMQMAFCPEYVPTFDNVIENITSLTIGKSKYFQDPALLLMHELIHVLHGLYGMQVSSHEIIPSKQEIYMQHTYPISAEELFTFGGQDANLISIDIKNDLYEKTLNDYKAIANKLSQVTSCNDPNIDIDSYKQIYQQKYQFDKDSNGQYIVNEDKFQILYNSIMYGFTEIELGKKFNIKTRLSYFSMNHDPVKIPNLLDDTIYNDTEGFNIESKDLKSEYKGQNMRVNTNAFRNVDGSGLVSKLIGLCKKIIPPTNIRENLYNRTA
# Sequence (P04958 458-1315 limits assumed, chain 2 of 2): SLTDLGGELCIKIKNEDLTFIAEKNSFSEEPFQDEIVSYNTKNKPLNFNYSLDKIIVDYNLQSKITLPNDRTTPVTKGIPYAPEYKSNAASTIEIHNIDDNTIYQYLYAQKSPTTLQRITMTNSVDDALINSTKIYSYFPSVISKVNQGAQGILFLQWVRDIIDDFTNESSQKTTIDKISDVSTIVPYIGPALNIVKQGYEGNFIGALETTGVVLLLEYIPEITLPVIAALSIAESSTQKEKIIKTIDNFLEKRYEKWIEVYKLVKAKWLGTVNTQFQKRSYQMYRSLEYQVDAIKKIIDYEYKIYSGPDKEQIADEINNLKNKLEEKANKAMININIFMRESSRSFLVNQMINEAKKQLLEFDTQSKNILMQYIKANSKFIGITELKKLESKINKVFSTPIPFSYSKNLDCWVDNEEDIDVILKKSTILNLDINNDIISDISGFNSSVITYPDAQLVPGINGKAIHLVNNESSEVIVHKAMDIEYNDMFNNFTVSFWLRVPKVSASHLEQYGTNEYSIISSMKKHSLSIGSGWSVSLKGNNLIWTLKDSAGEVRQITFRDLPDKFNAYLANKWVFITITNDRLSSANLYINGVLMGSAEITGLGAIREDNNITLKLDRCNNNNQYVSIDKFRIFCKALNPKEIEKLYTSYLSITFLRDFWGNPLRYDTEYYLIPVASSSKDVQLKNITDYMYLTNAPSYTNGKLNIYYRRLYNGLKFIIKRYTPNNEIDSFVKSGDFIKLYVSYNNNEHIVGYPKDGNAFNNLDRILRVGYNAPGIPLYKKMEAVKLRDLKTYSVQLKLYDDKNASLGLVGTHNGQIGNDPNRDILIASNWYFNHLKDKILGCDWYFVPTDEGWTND
# assay.method.text: competition ELISA on TeNT, binder biotinylated; competitor SVT03L; note: test concentration or dose not given here
parameter.measured: % inhibition of binding (%)
Numbers only, in %.

binder: SVT16L (VHH) VHH: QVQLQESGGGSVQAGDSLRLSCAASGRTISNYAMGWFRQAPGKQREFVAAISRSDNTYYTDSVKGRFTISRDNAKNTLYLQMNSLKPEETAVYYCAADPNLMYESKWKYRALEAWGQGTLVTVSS
% inhibition of binding [%]: -1

Record % inhibition of binding for all entries; do not skip any.
1. SVT22L (VHH) VHH: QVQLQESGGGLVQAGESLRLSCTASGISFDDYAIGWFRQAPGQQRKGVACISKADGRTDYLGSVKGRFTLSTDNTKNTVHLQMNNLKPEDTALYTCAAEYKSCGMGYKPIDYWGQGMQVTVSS
2. SVT34L (VHH) VHH: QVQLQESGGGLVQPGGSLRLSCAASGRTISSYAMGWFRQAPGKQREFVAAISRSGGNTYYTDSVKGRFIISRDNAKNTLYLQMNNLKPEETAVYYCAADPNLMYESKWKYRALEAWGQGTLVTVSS
3. SVT15L-3FW4M (VHH) VHH: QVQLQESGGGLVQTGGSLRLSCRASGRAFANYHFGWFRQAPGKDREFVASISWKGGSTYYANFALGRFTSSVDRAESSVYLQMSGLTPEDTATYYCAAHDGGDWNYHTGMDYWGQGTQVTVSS
4. SVT02L (VHH) VHH: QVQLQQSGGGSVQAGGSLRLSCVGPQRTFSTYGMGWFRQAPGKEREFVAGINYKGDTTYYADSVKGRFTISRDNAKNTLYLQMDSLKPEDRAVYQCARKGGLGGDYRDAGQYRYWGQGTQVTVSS
5. SVT15L (VHH) VHH: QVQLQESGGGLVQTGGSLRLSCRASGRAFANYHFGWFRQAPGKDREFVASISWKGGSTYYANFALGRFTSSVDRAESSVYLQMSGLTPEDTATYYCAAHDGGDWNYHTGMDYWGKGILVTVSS

1. 5
2. 0
3. -8
4. 9
5. -5
